- Tested on: Enterobacter
- experiment-notes: Minimum inhibitory concentration required for antibacterial activity against Enterobacter
- Format: functional
endpoint-label: MIC
Give the value; after it, write the unit.

As a guide, the following entries are already answered.
{"smiles-code": "C[C@H](N)C1=C(C(=O)O)N2C(=O)[C@H]([C@@H](C)O)[C@H]2S1", "tested-on": "Enterobacter", "MIC": "20.2 µg/mL"}
{"smiles-code": "CSC[C@@H](N)C1=C(C(=O)O)N2C(=O)[C@H]([C@@H](C)O)[C@H]2S1", "tested-on": "Enterobacter", "MIC": "2 µg/mL"}
{"smiles-code": "CSCC[C@H](N)C1=C(C(=O)O)N2C(=O)[C@H]([C@@H](C)O)[C@H]2S1", "tested-on": "Enterobacter", "MIC": "20.2 µg/mL"}
{"smiles-code": "C[C@@H](O)[C@H]1C(=O)N2C(C(=O)O)=C(CC[C@H](N)C(=O)O)S[C@H]12", "tested-on": "Enterobacter", "MIC": "16 µg/mL"}
{"smiles-code": "C[C@@H](O)[C@H]1C(=O)N2C(C(=O)O)=C(SC[C@H](N)C(=O)O)S[C@H]12", "tested-on": "Enterobacter", "MIC": "16 µg/mL"}
{"smiles-code": "C[C@@H](O)[C@H]1C(=O)N2C(C(=O)O)=C(CN)S[C@H]12", "tested-on": "Enterobacter", "MIC": "8 µg/mL"}
{"smiles-code": "C[C@@H](O)[C@H]1C(=O)N2C(C(=O)O)=C(SCCOC(N)=O)S[C@H]12", "tested-on": "Enterobacter", "MIC": "1.3 µg/mL"}
{"smiles-code": "C[C@@H](O)[C@H]1C(=O)N2C(C(=O)O)=C(SC[C@@H](N)C(=O)O)S[C@H]12", "tested-on": "Enterobacter", "MIC": "0.76 µg/mL"}

In: For `C[C@@H](O)[C@H]1C(=O)N2C(C(=O)O)=C(COC(N)=O)S[C@H]12` , what is its reported MIC?
Out: 3.2 µg/mL

In: For `C[C@@H](O)[C@H]1C(=O)N2C(C(=O)O)=C(CSC[C@H](N)C(=O)O)S[C@H]12` , what is its reported MIC?
Out: 10.1 µg/mL

In: For `C[C@@H](N)C1=C(C(=O)O)N2C(=O)[C@H]([C@@H](C)O)[C@H]2S1` , what is its reported MIC?
Out: 10.1 µg/mL

In: For `C[C@@H](O)[C@H]1C(=O)N2C(C(=O)O)=C(CC[C@@H](N)C(=O)O)S[C@H]12` , what is its reported MIC?
Out: 2.52 µg/mL

In: For `CSCC[C@@H](N)C1=C(C(=O)O)N2C(=O)[C@H]([C@@H](C)O)[C@H]2S1` , what is its reported MIC?
Out: 1 µg/mL

In: For `C[C@@H](O)[C@H]1C(=O)N2C(C(=O)O)=C([C@H](N)CCC(=O)O)S[C@H]12` , what is its reported MIC?
Out: 6.35 µg/mL

In: For `C[C@@H](O)[C@H]1C(=O)N2C(C(=O)O)=C(CSC[C@@H](N)C(=O)O)S[C@H]12` , what is its reported MIC?
Out: 0.63 µg/mL

In: For `CSC[C@H](N)C1=C(C(=O)O)N2C(=O)[C@H]([C@@H](C)O)[C@H]2S1` , what is its reported MIC?
Out: 20.2 µg/mL

----------
- experiment-notes: Gram-negative geometric mean MIC of antibacterial activity
- Assay type: functional
endpoint-label: MIC (µg/mL)
Number in µg/mL, nothing else.

{"smiles-code": "C[C@@H](O)[C@H]1C(=O)N2C(C(=O)O)=C([C@H](N)CCC(=O)O)S[C@H]12", "endpoint-label": "MIC", "numeric-readout": 5.4}

In: For `C[C@@H](N)C1=C(C(=O)O)N2C(=O)[C@H]([C@@H](C)O)[C@H]2S1` , what is its reported MIC?
Out: 14.3

In: For `CSC[C@@H](N)C1=C(C(=O)O)N2C(=O)[C@H]([C@@H](C)O)[C@H]2S1` , what is its reported MIC?
Out: 1.33

In: For `C[C@@H](O)[C@H]1C(=O)N2C(C(=O)O)=C(SCCOC(N)=O)S[C@H]12` , what is its reported MIC?
Out: 0.57

----------
- experiment-notes: Gram-positive geometric mean MIC for antibacterial activity (ug/mL)
- Format: functional
The compounds listed here are annotated with their MIC.
Number in µg/mL, nothing else.

As a guide, the following entries are already answered.
{"compound": "C[C@@H](N)C1=C(C(=O)O)N2C(=O)[C@H]([C@@H](C)O)[C@H]2S1", "unit-symbol": "µg/mL", "numeric-readout": 0.29}
{"compound": "C[C@@H](O)[C@H]1C(=O)N2C(C(=O)O)=C(CC[C@H](N)C(=O)O)S[C@H]12", "unit-symbol": "µg/mL", "numeric-readout": 3.4}
{"compound": "CSC[C@@H](N)C1=C(C(=O)O)N2C(=O)[C@H]([C@@H](C)O)[C@H]2S1", "unit-symbol": "µg/mL", "numeric-readout": 0.18}

In: For `C[C@H](N)C1=C(C(=O)O)N2C(=O)[C@H]([C@@H](C)O)[C@H]2S1` , what is its reported MIC?
Out: 0.47

In: For C[C@@H](O)[C@H]1C(=O)N2C(C(=O)O)=C(COC(N)=O)S[C@H]12 [RITIPENEM] , what is its reported MIC?
Out: 0.16

In: For `C[C@@H](O)[C@H]1C(=O)N2C(C(=O)O)=C(CN)S[C@H]12` , what is its reported MIC?
Out: 0.28

In: For `C[C@@H](O)[C@H]1C(=O)N2C(C(=O)O)=C(CC[C@@H](N)C(=O)O)S[C@H]12` , what is its reported MIC?
Out: 2.7

In: For `C[C@@H](O)[C@H]1C(=O)N2C(C(=O)O)=C(SC[C@H](N)C(=O)O)S[C@H]12` , what is its reported MIC?
Out: 4

----------
- experiment-notes: Gram-positive geometric mean MIC for antibacterial activity (ug/mL)
- Assay type: functional
endpoint-label: MIC (µg/mL)
Number in µg/mL, nothing else.

As a guide, the following entries are already answered.
{"compound": "CSCC[C@@H](N)C1=C(C(=O)O)N2C(=O)[C@H]([C@@H](C)O)[C@H]2S1", "endpoint-label": "MIC", "numeric-readout": 0.88}
{"compound": "CSCC[C@H](N)C1=C(C(=O)O)N2C(=O)[C@H]([C@@H](C)O)[C@H]2S1", "endpoint-label": "MIC", "numeric-readout": 0.37}
{"compound": "C[C@@H](O)[C@H]1C(=O)N2C(C(=O)O)=C(CSC[C@H](N)C(=O)O)S[C@H]12", "endpoint-label": "MIC", "numeric-readout": 0.94}
{"compound": "C[C@@H](O)[C@H]1C(=O)N2C(C(=O)O)=C(SCCOC(N)=O)S[C@H]12 [Sch-34343]", "endpoint-label": "MIC", "numeric-readout": 0.15}
{"compound": "C[C@@H](O)[C@H]1C(=O)N2C(C(=O)O)=C(CSC[C@@H](N)C(=O)O)S[C@H]12", "endpoint-label": "MIC", "numeric-readout": 1.1}

// switching to the query compound
In: For `C[C@@H](O)[C@H]1C(=O)N2C(C(=O)O)=C([C@H](N)CCC(=O)O)S[C@H]12` , what is its reported MIC?
Out: 1

----------
- System: Bacillus subtilis
- experiment-notes: Minimum inhibitory concentration required for antibacterial activity against Bacillus subtilis
- Type: functional
Each entry falls in a class defined on MIC; the bands are c1 (below 0.2 µg/mL), c2 (0.2 µg/mL to below 1 µg/mL), c3 (1 µg/mL or more)

Examples with answers:
{"smiles-code": "C[C@@H](O)[C@H]1C(=O)N2C(C(=O)O)=C(COC(N)=O)S[C@H]12", "class-label": "c1"}
{"smiles-code": "CSCC[C@H](N)C1=C(C(=O)O)N2C(=O)[C@H]([C@@H](C)O)[C@H]2S1", "class-label": "c3"}
{"smiles-code": "C[C@@H](O)[C@H]1C(=O)N2C(C(=O)O)=C(CC[C@H](N)C(=O)O)S[C@H]12", "class-label": "c3"}
{"smiles-code": "C[C@@H](O)[C@H]1C(=O)N2C(C(=O)O)=C(SCCOC(N)=O)S[C@H]12", "class-label": "c1"}
{"smiles-code": "C[C@@H](O)[C@H]1C(=O)N2C(C(=O)O)=C(SC[C@@H](N)C(=O)O)S[C@H]12", "class-label": "c2"}

In: Place this compound in its band: `C[C@@H](O)[C@H]1C(=O)N2C(C(=O)O)=C(SC[C@H](N)C(=O)O)S[C@H]12`
Out: c3

In: Place this compound in its band: `C[C@@H](O)[C@H]1C(=O)N2C(C(=O)O)=C(CSC[C@H](N)C(=O)O)S[C@H]12`
Out: c2

In: Place this compound in its band: `C[C@@H](O)[C@H]1C(=O)N2C(C(=O)O)=C(CN)S[C@H]12`
Out: c2

In: Place this compound in its band: `CSCC[C@@H](N)C1=C(C(=O)O)N2C(=O)[C@H]([C@@H](C)O)[C@H]2S1`
Out: c1

In: Place this compound in its band: `CSC[C@H](N)C1=C(C(=O)O)N2C(=O)[C@H]([C@@H](C)O)[C@H]2S1`
Out: c2

In: Place this compound in its band: `C[C@@H](O)[C@H]1C(=O)N2C(C(=O)O)=C(CSC[C@@H](N)C(=O)O)S[C@H]12`
Out: c2

In: Place this compound in its band: `CSC[C@@H](N)C1=C(C(=O)O)N2C(=O)[C@H]([C@@H](C)O)[C@H]2S1`
Out: c1

In: Place this compound in its band: `C[C@@H](O)[C@H]1C(=O)N2C(C(=O)O)=C([C@H](N)CCC(=O)O)S[C@H]12`
Out: c2
